Form field: T onset, the onset temperature of the thermal degradation (one value per entry).
procedureText: Thermal stability by TG analysis
Assay type: physicochemical
Give the number; °C is assumed, so skip it.

Observe how each entry below is paired with its result.
compound="CC(C)Cc1ccc(C(C)C(=O)O)cc1.CCCCCCOC(=O)[C@@H](N)C(C)C [[ValOHex][IBU], L-valine hexyl ester ibuprofenate]" experimentalvalue=128.9
compound="CC(C)Cc1ccc(C(C)C(=O)O)cc1.CCCOC(=O)[C@@H](N)C(C)C [[ValOPr][IBU], L-valine propyl ester ibuprofenate]" experimentalvalue=109.5

Next compound, please.
Look up T onset, the onset temperature of the thermal degradation: CC(C)Cc1ccc(C(C)C(=O)O)cc1.CCCCCOC(=O)[C@@H](N)C(C)C [[ValOAm][IBU], L-valine pentyl ester ibuprofenate]
129.8
